Recorded values, source paper PMC10397247.

Form field: interaction score (one value per entry).
- test_system: T1, 4H331-bN
- T1 chain: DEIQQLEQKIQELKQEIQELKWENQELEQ
- assay_name: two-hybrid library CCNG1;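 further: natural log of median RNA to DNA barcode read ratio; higher means stronger binding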
quantity: interaction score

binder	quantity	readout_number
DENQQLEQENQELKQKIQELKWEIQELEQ [4H1257-bN]	interaction score	-1.48
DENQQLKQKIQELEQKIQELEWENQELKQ [4H1828-bN]	interaction score	0.0332
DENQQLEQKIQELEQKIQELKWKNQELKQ [4H1328-bN]	interaction score	1.8
